- Test system: Escherichia coli TOP10
- protocol_summary: shrunken log2 fold change of peptide-encoding DNA abundance (4.5 h post-induction vs induction); higher = less antimicrobial activity (less host growth inhibition)
- measurement_parameters: time post-induction: 4.5 h; library: site-saturation at positions 5, 18, 19, 20
Readings of shrunken log2 fold change for the listed sequences

ordered_residues	shrunken log2 fold change
RRIRFRPPRLPRPRPRPVGVPRP	0.356
RRIRCRPPRLPRPRPRPVKIPRP	0.108
RRIRGRPPRLPRPRPRPGICPRP	0.808
RRIRFRPPRLPRPRPRPDPAPRP	0.266
RRIRRRPPRLPRPRPRPVMEPRP	0.305
RRIRNRPPRLPRPRPRPQGFPRP	-0.00956
RRIRRRPPRLPRPRPRPFWTPRP	0.00443
RRIRDRPPRLPRPRPRPSQYPRP	-0.697
RRIRSRPPRLPRPRPRPHGQPRP	0.24
RRIRQRPPRLPRPRPRPDAKPRP	0.199
RRIRMRPPRLPRPRPRPGNFPRP	0.121
RRIRSRPPRLPRPRPRPGWAPRP	0.706
RRIRMRPPRLPRPRPRPCWEPRP	-0.0572
RRIRYRPPRLPRPRPRPCEYPRP	-0.138
RRIRNRPPRLPRPRPRPRIPPRP	0.157
RRIRVRPPRLPRPRPRPELVPRP	0.14
RRIRERPPRLPRPRPRPDCCPRP	-0.157
RRIRLRPPRLPRPRPRPALSPRP	3.4
RRIRVRPPRLPRPRPRPFCMPRP	-0.537
RRIRMRPPRLPRPRPRPQLLPRP	0.0491
RRIRPRPPRLPRPRPRPATKPRP	0.29
RRIRMRPPRLPRPRPRPGKKPRP	0.532
RRIRHRPPRLPRPRPRPAYAPRP	-0.182
RRIRRRPPRLPRPRPRPGKSPRP	0.0256
RRIRSRPPRLPRPRPRPHDHPRP	-0.23
RRIRCRPPRLPRPRPRPWGCPRP	-0.00936
RRIRARPPRLPRPRPRPNVYPRP	-0.115
RRIRTRPPRLPRPRPRPVMLPRP	-0.157
RRIRNRPPRLPRPRPRPQLEPRP	0.307
RRIRTRPPRLPRPRPRPRYAPRP	0.108
RRIRIRPPRLPRPRPRPQGYPRP	-0.0157
RRIRARPPRLPRPRPRPENPPRP	1.14

###

- System: Escherichia coli TOP10;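 further: peptides expressed intracellularly from a pBAD plasmid library in pooled LB shake-flask culture, induced with 0.3% L-arabinose, DNA abundance read by NGS, three biological replicates, DESeq2 with apeglm shrinkage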
- protocol_summary: shrunken log2 fold change of peptide-encoding DNA abundance (4.5 h post-induction vs induction); higher = less antimicrobial activity (less host growth inhibition)
- measurement_parameters: time post-induction: 4.5 h; library: site-saturation at positions 5, 18, 19, 20
So basically, the class depends on measured shrunken log2 fold change, and the ranges are lo (below -0.2), med (-0.2 to below -0.004), hi (-0.004 or more)

ordered_residues	discrete_label
RRIRKRPPRLPRPRPRPTSLPRP	med
RRIRDRPPRLPRPRPRPFKIPRP	lo
RRIRCRPPRLPRPRPRPMFPPRP	lo
RRIRLRPPRLPRPRPRPDKLPRP	lo
RRIRNRPPRLPRPRPRPWLMPRP	med
RRIRKRPPRLPRPRPRPVEEPRP	hi
RRIRKRPPRLPRPRPRPIAAPRP	hi
RRIRVRPPRLPRPRPRPQEIPRP	med
RRIRLRPPRLPRPRPRPRFKPRP	hi
RRIRYRPPRLPRPRPRPLLFPRP	lo
RRIRARPPRLPRPRPRPQMFPRP	med
RRIRARPPRLPRPRPRPFKDPRP	med
RRIRSRPPRLPRPRPRPADKPRP	lo
RRIRDRPPRLPRPRPRPEKEPRP	hi
RRIRMRPPRLPRPRPRPFMIPRP	med
